- systemTested: BTK protein kinase (Homo sapiens)
- protocolDescription: In vitro enzymatic activity against BTK (ADP-Glo)
- Type: biochemical
- measurementParameters: compound with BTK 4 hours at room temperature; ATP 10 μM, 37° C. 1 hour; values in nM
measuredQuantity: IC50 (nM)
# value in nM; strip the unit string

The molecule listed as Cc1c(NC(=O)c2ccc(C(C)(C)C)cc2)cccc1-c1cc(Nc2ccc(C(=O)N3CCCC3)c(NC(=O)CCl)c2)c(=O)n(C)c1 has a reported IC50 of 29

Sample CCC(=O)Nc1cc(Nc2cc(-c3cccc(NC(=O)c4ccc(C(C)(C)C)cc4)c3C)cn(C)c2=O)ccc1C(=O)N1CCCC1 ; IC50 observed: 165

Measured IC50 of C=CC(=O)Nc1cc(Nc2cc(-c3cccc(NC(=O)c4cc5c(s4)CCCC5)c3C)cn(C)c2=O)ccc1C(=O)N1CCOCC1 : 25

// sample C=CC(=O)Nc1cc(Nc2cc(-c3cccc(NC(=O)c4cc5c(s4)CCCC5)c3C)cn(C)c2=O)ccc1C(=O)N1CCCC1 , its IC50 was 83.6

Per the record, C=CC(=O)Nc1cc(Nc2cc(-c3cccc(NC(=O)c4cc5ccccc5s4)c3C)cn(C)c2=O)ccc1N1CCN(CC)CC1 has IC50 of 156

Entry C=CC(=O)Nc1cc(Nc2cc(-c3cccc(NC(=O)c4cc5c(s4)CCCC5)c3C)cn(C)c2=O)ccc1N1CCN(C(C)=O)CC1 ; IC50 = 82

---

- systemTested: UniProt:Q06187
- protocolDescription: In vitro enzymatic activity against BTK (ADP-Glo)
- Type: biochemical
- measurementParameters: compound with BTK 4 hours at room temperature; ATP 10 μM, 37° C. 1 hour; values given in μM
Criterion: IC50 strictly less than 2 µM. Met: true (1). Not met: false (0).

Input line: Hello, is IC50 of the following compound strictly smaller than 2 µM? C=CC(=O)Nc1cc(NC(=O)c2ccc(C(C)(C)C)cc2)c(C)c(-c2cc(Nc3ccc(C(=O)N4CCOCC4)cc3)c(=O)n(C)c2)c1 [Compound 8]
Output line: false (0)

Input line: Please indicate whether the reported IC50 of C=CC(=O)Nc1ccc(NC(=O)c2ccc(C(C)(C)C)cc2)c(C)c1-c1cc(Nc2ccc(C(=O)N3CCOCC3)cc2)c(=O)n(C)c1 [Compound 24] is strictly below 2 µM.
Output line: true (1)

Input line: Is the reported IC50 for Cc1c(NC(=O)c2ccc(C(C)(C)C)cc2)cccc1-c1cc(Nc2cccc(NC(=O)CCl)c2)c(=O)n(C)c1 [Compound 22] strictly below 2 µM?
Output line: false (0)

Input line: Consider Cc1c(NC(=O)c2ccc(C(C)(C)C)cc2)cc(NC(=O)CCl)cc1-c1cc(Nc2ccc(C(=O)N3CCOCC3)cc2)c(=O)n(C)c1 [Compound 7] . Does its IC50 lie strictly below 2 µM?
Output line: true (1)

Input line: In the record for C=CC(=O)Nc1cc(Nc2cc(-c3cccc(NC(=O)c4ccccc4)c3C)cn(C)c2=O)ccc1C(=O)N1CCOCC1 [Compound 12] , is IC50 less than 2 µM?
Output line: false (0)

---

- systemTested: UniProt Q06187
- protocolDescription: In vitro enzymatic activity against BTK (ADP-Glo)
- Assay type: biochemical
- measurementParameters: compound with BTK 4 hours at room temperature; ATP 10 μM, 37° C. 1 hour; values in nM
Consider the following molecules; for each one, report its log10(IC50).
Log10 applied to IC50; unit prior to transform: nM.

Sample C=CC(=O)Nc1cc(Nc2cc(-c3cccc(NC(=O)c4ccc(C5CC5)cc4)c3C)cn(C)c2=O)ccc1C(=O)N1CCOCC1 ; log10(IC50) observed: 2.26

What the record says about C=CC(=O)Nc1cc(Nc2cc(-c3cccc(NC(=O)c4cccc(OC)c4)c3C)cn(C)c2=O)ccc1C(=O)N1CCOCC1 : log10(IC50) is 2.91

log10(IC50) reading for C=CC(=O)Nc1cc(Nc2cc(-c3cccc(NC(=O)c4ccc(N(C)C)cc4)c3C)cn(C)c2=O)ccc1N1CCN(CC)CC1 : 1.36

// field: log10(IC50); key: C=CC(=O)Nc1cc(Nc2cc(-c3cccc(NC(=O)c4ccc(C5CC5)cc4)c3C)cn(C)c2=O)ccc1N1CCN(C)CC1 ; value = 2.26

Noted for Cc1c(NC(=O)c2ccc(N(C)C)cc2)cccc1-c1cc(Nc2ccc(C(=O)N3CCOCC3)c(NC(=O)CCl)c2)c(=O)n(C)c1 : its log10(IC50) reads 1.38

Value of log10(IC50) reported for the molecule C=CC(=O)Nc1cc(Nc2cc(-c3cccc(NC(=O)c4cc5c(s4)CCCC5)c3C)cn(C)c2=O)ccc1N(C)C is 2.00

log10(IC50) recorded for this molecule, C=CC(=O)Nc1cc(Nc2cc(-c3cccc(NC(=O)c4cc5ccccc5s4)c3C)cn(C)c2=O)ccc1N1CCC(N(C)C)CC1 , is 0.89

Value of measured log10(IC50) for the entry C=CC(=O)Nc1cc(Nc2cc(-c3cccc(NC(=O)c4ccc(C)cc4)c3C)cn(C)c2=O)ccc1C(=O)N1CCOCC1 : 1.95

Value of log10(IC50) reported for the molecule C=CC(=O)Nc1cc(Nc2cc(-c3cccc(NC(=O)c4cc5c(s4)CCCC5)c3C)cn(C)c2=O)ccc1N1CCC(OC)CC1 is 2.22

log10(IC50) for C=CC(=O)Nc1cc(Nc2cc(-c3cccc(NC(=O)c4ccc(C(C)(C)C)cc4)c3C)cn(C)c2=O)ccc1C(=O)N1CCCC1 is 1.28

Consider C=CC(=O)Nc1cc(Nc2cc(-c3cccc(NC(=O)c4cc(C)cs4)c3C)cn(C)c2=O)ccc1C(=O)N1CCOCC1 . Its measured log10(IC50) is 2.06

Reported log10(IC50) of Cc1ccc(C(=O)Nc2cccc(-c3cc(Nc4ccc(C(=O)N5CCOCC5)c(NC(=O)CCl)c4)c(=O)n(C)c3)c2C)cc1 : 2.18

# molecule C=CC(=O)Nc1cc(Nc2cc(-c3cccc(NC(=O)c4ccc(C(C)(C)C)cc4)c3C)cn(C)c2=O)ccc1C(=O)N1CCN(C)CC1 ; its log10(IC50) = 2.16

Sure, the documented log10(IC50) for C#CC(=O)Nc1cc(C(=O)N2CCOCC2)ccc1Nc1cc(-c2cccc(NC(=O)c3ccc(C(C)(C)C)cc3)c2C)cn(C)c1=O is 1.51

Entry under test: C=CC(=O)Nc1cc(Nc2cc(-c3cccc(NC(=O)c4cc5ccccc5s4)c3C)cn(C)c2=O)ccc1C(=O)N1CCOCC1 . Its log10(IC50) was 1.34

Lab note: CCC(=O)Nc1cc(Nc2cc(-c3cccc(NC(=O)c4ccc(C(C)(C)C)cc4)c3C)cn(C)c2=O)ccc1C(=O)N1CCN(C(=O)OC(C)(C)C)CC1 gave log10(IC50) of 2.70

Reported log10(IC50) ( C=CC(=O)Nc1cc(Nc2cc(-c3cccc(NC(=O)c4cc5c(s4)CCCC5)c3C)cn(C)c2=O)ccc1N1CCN(CC)CC1 ) = 1.40

Lab book: log10(IC50) of C=CC(=O)Nc1cc(Nc2cc(-c3cccc(NC(=O)c4ccc5c(c4)CCCC5)c3C)cn(C)c2=O)ccc1C(=O)N1CCOCC1 noted as 1.61

The recorded log10(IC50) for C=CC(=O)Nc1cc(Nc2cc(-c3cccc(NC(=O)c4ccc(N(C)C)cc4)c3C)cn(C)c2=O)ccc1C(=O)N1CCOCC1 is 0.70

# log10(IC50) of C=CC(=O)Nc1cc(Nc2cc(-c3cccc(NC(=O)c4cc5ccccc5s4)c3C)cn(C)c2=O)ccc1N1CCN(C(C)=O)CC1 = 1.86

The recorded log10(IC50) for entry C=CC(=O)Nc1cc(Nc2cc(-c3cccc(NC(=O)c4ccc(C(C)(C)C)cc4)c3C)cn(C)c2=O)ccc1C(=O)N1CCCC(O)C1 (stereo not shown) equals 1.38

The molecule identified as C=CC(=O)Nc1cc(Nc2cc(-c3cccc(NC(=O)c4ccc(N(C)C)cc4)c3C)cn(C)c2=O)ccc1C(=O)NCCOC registered its log10(IC50) at 2.82

Lab book: log10(IC50) of C=CC(=O)Nc1cc(Nc2cc(-c3cccc(NC(=O)c4ccc5c(c4)OCCO5)c3C)cn(C)c2=O)ccc1C(=O)N1CCOCC1 noted as 1.86

What the record says about C=CC(=O)Nc1cc(Nc2cc(-c3cccc(NC(=O)c4ccc(N5CCCC5)cc4)c3C)cn(C)c2=O)ccc1C(=O)N1CCOCC1 : log10(IC50) is 2.00

---

Exercise: state measured log10 of IC50 for each of the molecules provided.
- systemTested: BTK protein kinase (Homo sapiens, UniProt Q06187)
- Sequence (Q06187 whole entry): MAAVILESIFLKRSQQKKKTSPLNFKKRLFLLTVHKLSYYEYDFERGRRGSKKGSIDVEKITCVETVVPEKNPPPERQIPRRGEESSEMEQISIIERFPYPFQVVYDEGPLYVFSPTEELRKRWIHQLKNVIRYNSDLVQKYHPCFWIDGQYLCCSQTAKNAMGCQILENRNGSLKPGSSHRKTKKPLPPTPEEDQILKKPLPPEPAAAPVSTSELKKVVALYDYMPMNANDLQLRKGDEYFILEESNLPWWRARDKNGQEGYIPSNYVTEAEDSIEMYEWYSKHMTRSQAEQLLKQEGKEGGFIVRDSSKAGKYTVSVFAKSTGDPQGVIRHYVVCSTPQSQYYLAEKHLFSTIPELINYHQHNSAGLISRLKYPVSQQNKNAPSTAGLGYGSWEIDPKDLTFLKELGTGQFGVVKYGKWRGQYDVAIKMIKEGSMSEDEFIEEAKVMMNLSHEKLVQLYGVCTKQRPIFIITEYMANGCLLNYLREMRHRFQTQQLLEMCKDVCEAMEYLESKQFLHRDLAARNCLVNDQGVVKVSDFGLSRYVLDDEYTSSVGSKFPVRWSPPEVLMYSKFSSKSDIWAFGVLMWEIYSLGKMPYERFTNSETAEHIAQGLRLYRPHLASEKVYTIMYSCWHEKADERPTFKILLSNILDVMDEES
- protocolDescription: In vitro enzymatic activity against BTK (ADP-Glo)
- Type: biochemical
- measurementParameters: compound with BTK 4 hours at room temperature; ATP 10 μM, 37° C. 1 hour; values in nM
Transform log10 | Measure IC50 | Unit nM

Looking up C=CC(=O)Nc1cc(Nc2cc(-c3cccc(NC(=O)c4cc5ccccc5s4)c3C)cn(C)c2=O)ccc1N(C)C [Compound 93] , I found its log10 of IC50 recorded as 1.19

// log10 of IC50 lookup, molecule = C=CC(=O)Nc1cc(Nc2cc(-c3cccc(NC(=O)c4cc5c(s4)CCCC5)c3C)cn(C)c2=O)ccc1N1CCOCC1 [Compound 78] , result: 2.08

Recorded log10 of IC50 (molecule C=CC(=O)Nc1cc(Nc2cc(-c3cccc(NC(=O)c4ccc(N(C)C)cc4)c3C)cn(C)c2=O)ccc1C(=O)N1CCC(O)CC1 [Compound 56] ): 2.09

Lookup result for C=CC(=O)Nc1cc(Nc2cc(-c3cccc(NC(=O)c4cc5c(s4)CCCC5)c3C)cn(C)c2=O)ccc1N1CCCC1 [Compound 80] ; measured log10 of IC50: 1.92

Looking up Cc1c(NC(=O)c2ccc(C(C)(C)C)cc2)cccc1-c1cc(Nc2ccc(C(=O)N3CCOCC3)c(NC(=O)CCl)c2)c(=O)n(C)c1 [Compound 2] , I see its log10 of IC50 listed as 1.58

Given item Cc1ccc(Nc2cc(-c3cccc(NC(=O)c4ccc(C(C)(C)C)cc4)c3C)cn(C)c2=O)cc1NC(=O)CCl [Compound 26] , the value recorded as its log10 of IC50 is 2.35

log10 of IC50 in this record for C=CC(=O)Nc1cc(Nc2cc(-c3cccc(NC(=O)c4ccc(N(C)C)cc4)c3C)cn(C)c2=O)ccc1C(=O)N1CCCCC1 [Compound 50] : 1.96

In plain terms, CCC(=O)Nc1cc(Nc2cc(-c3cccc(NC(=O)c4ccc(C(C)(C)C)cc4)c3C)cn(C)c2=O)ccc1C(=O)N(C)C [Compound 30] has a documented log10 of IC50 of 2.53

# log10 of IC50 of C=CC(=O)Nc1cc(Nc2cc(-c3cccc(NC(=O)c4ccc(C)c(C(F)(F)F)c4)c3C)cn(C)c2=O)ccc1C(=O)N1CCOCC1 [Compound 63] = 2.90

Just so you know, measured log10 of IC50 for C=CC(=O)Nc1cc(Nc2cc(-c3cccc(NC(=O)c4cc5ccccc5s4)c3C)cn(C)c2=O)ccc1N1CCN(C(C)C)CC1 [Compound 90] came out at 0.81

For reference, reported log10 of IC50 for C=CC(=O)Nc1cc(Nc2cc(-c3cccc(NC(=O)c4ccc(C(C)C)cc4)c3C)cn(C)c2=O)ccc1C(=O)N1CCOCC1 [Compound 64] stands at 1.34

Given item C=CC(=O)Nc1cc(Nc2cc(-c3cccc(NC(=O)c4ccc(N(C)C)cc4)c3C)cn(C)c2=O)ccc1C(=O)NC1CCOCC1 [Compound 51] , the value recorded as its log10 of IC50 is 1.95

Briefly, log10 of IC50 measured for CCC(=O)Nc1cc(Nc2cc(-c3cccc(NC(=O)c4cc5c(s4)CCCC5)c3C)cn(C)c2=O)ccc1C(=O)N1CCOCC1 [Compound 67] : 1.40

// sample C=CC(=O)Nc1cc(Nc2cc(-c3cccc(NC(=O)c4ccc(C(C)(C)C)cc4)c3C)cn(C)c2=O)ccc1C [Compound 25] , its log10 of IC50 was 2.33

GET /value?item= C=CC(=O)Nc1cc(Nc2cc(-c3cccc(NC(=O)c4ccc(C(C)(C)C)cc4)c3C)cn(C)c2=O)ccc1C(=O)N1CCOCC1 [Compound 1] &field=log10 of IC50 returns 0.85

Lab note: measured log10 of IC50 of C=CC(=O)Nc1cc(Nc2cc(-c3cccc(NC(=O)c4ccc(C(C)(C)C)cc4)c3C)cn(C)c2=O)ccc1C(=O)NC1CC1 [Compound 46] was 1.65

So, C=CC(=O)Nc1cc(Nc2cc(-c3cccc(NC(=O)c4cc5c(s4)CCCC5)c3C)cn(C)c2=O)ccc1N1CCN(C)CC1 [Compound 75] ? Its log10 of IC50 was 0.85

Given item C=CC(=O)Nc1cc(Nc2cc(-c3cccc(NC(=O)c4cc5c(s4)CCCC5)c3C)cn(C)c2=O)ccc1N1CCC(N(C)C)CC1 [Compound 83] , the value recorded as its log10 of IC50 is 1.22

So, C=CC(=O)Nc1cc(Nc2cc(-c3cccc(NC(=O)c4ccc(N(C)C)cc4)c3C)cn(C)c2=O)ccc1C(=O)N1CCC(OC)CC1 [Compound 52] ? Its log10 of IC50 was 2.77

// field: log10 of IC50; key: C=CC(=O)Nc1cc(Nc2cc(-c3cccc(NC(=O)c4cc5c(s4)CCCC5)c3C)cn(C)c2=O)ccc1N1CCN(C(C)C)CC1 [Compound 89] ; value = 1.36

Item: C=CC(=O)Nc1cc(Nc2cc(-c3cccc(NC(=O)c4ccc(N(C)C)cc4)c3C)cn(C)c2=O)ccc1C(=O)N1CCCC(O)C1 (centres unmarked) [Compound 55] | log10 of IC50: 2.26

Input CCC(=O)Nc1cc(Nc2cc(-c3cccc(NC(=O)c4ccc(N(C)C)cc4)c3C)cn(C)c2=O)ccc1C(=O)N1CCOCC1 [Compound 37] . Output log10 of IC50: 2.81

Item: Cc1c(NC(=O)c2ccc3c(c2)OCO3)cccc1-c1cc(Nc2ccc(C(=O)N3CCOCC3)c(NC(=O)CCl)c2)c(=O)n(C)c1 [Compound 19] | log10 of IC50: 2.29

The molecule C=CC(=O)Nc1cc(Nc2cc(-c3cccc(NC(=O)c4ccc(C(F)(F)F)cc4)c3C)cn(C)c2=O)ccc1C(=O)N1CCOCC1 [Compound 60] showed log10 of IC50 equal to 2.02

Measured log10 of IC50, C=CC(=O)Nc1cc(Nc2cc(-c3cccc(NC(=O)c4ccc(C(C)(C)C)cc4)c3C)cn(C)c2=O)ccc1C(=O)N1CCN(C(=O)OC(C)(C)C)CC1 [Compound 38] : 1.93

The molecule identified as C=CC(=O)Nc1cc(Nc2cc(-c3cccc(NC(=O)c4ccc(C)s4)c3C)cn(C)c2=O)ccc1C(=O)N1CCOCC1 [Compound 71] registered its log10 of IC50 at 1.48

Sourced from patent US10669238B2
